# System tested: T1, recombinant human PD-L1 (amino acids 19-239 of NP_054862.1) with a C-terminal myc-myc-hexahistidine tag (human)
# T1 construct: also called hPD-L1-MMH; hPD-L1-MMH Monomer
# T1 sequence (chain, as listed by the source limits assumed): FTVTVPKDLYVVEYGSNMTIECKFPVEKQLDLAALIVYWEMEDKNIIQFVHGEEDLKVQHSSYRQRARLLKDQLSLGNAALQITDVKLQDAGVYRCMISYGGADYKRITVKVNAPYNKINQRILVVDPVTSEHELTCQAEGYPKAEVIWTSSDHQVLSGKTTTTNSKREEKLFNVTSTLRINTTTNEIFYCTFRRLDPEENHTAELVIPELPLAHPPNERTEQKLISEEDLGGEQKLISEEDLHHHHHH
# Method notes: SPR (Biacore), mAb captured, 37C
Provide the reported koff of each item.
Give bare numbers, in s⁻¹.

Below are worked cases with known answers.
Binder	koff / s⁻¹
H2aM8310N (antibody, mouse IgG2, V domains shown, also called H2M8310N) VH: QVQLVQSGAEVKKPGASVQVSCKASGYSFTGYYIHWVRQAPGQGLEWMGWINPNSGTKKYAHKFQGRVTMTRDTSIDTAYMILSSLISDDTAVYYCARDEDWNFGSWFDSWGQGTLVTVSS VL: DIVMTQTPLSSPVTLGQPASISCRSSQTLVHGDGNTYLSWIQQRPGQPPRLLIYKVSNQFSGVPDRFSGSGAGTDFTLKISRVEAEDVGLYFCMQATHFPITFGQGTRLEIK	0.00128
H1H9329P (antibody, human IgG1, V domains shown) VH: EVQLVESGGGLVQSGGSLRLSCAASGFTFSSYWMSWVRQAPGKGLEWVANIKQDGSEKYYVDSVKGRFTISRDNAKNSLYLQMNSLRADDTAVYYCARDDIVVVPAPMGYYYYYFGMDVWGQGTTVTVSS VL: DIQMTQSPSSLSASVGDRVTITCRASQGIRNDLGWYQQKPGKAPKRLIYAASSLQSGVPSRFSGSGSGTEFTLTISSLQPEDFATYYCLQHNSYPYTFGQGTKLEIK	0.329
H2aM8317N (antibody, mouse IgG2, V domains shown, also called H2M8317N) VH: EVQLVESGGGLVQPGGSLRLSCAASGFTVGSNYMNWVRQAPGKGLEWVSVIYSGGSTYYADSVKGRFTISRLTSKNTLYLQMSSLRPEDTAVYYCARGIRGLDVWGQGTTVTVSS VL: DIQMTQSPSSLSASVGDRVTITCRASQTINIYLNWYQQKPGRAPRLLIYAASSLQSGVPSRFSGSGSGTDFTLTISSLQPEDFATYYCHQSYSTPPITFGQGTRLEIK	0.0585

Turning to the following binder.
Prompt: I would be grateful if you could share the reported koff for H2aM8321N (antibody, mouse IgG2, V domains shown, also called H2M8321N) VH: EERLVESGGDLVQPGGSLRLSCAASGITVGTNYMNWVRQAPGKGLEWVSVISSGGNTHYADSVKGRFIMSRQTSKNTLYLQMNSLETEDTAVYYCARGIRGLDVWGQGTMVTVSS VL: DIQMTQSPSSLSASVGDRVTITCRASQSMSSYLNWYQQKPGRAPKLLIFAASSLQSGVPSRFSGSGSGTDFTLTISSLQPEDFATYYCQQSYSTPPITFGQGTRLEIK .
Response: 0.00929
